Please go through the items and note down their IC50.
# Tested on: BT20
# experiment-description: CellTiter-Blue cell-based survival/proliferation assay, BT20
# condition-set: Homo sapiens, BT-20; BT20 breast tumor cell line, 48 h

CCOCc1ccc(C)c(Nc2ncc(-c3ccc(-n4ccnn4)cc3)o2)c1: > 1 µM
COc1ccc(C)c(Nc2ncc(-c3ccc(-n4cccn4)cc3)o2)c1: > 1 µM

Proceeding to the next compound to report its IC50.
# IC50 lookup, item "CCOCc1cc(C)cc(Nc2ncc(-c3ccc(-n4cccn4)cc3)o2)c1"
> 1 µM

====

# System: PC3
# experiment-description: CellTiter-Blue cell-based survival/proliferation assay, PC3
# condition-set: Homo sapiens, PC-3; PC3 prostate tumor cell line, 48 h
readout-kind: IC50

List reported IC50 for each of these compounds:
1. CCOCc1ccc(C)c(Nc2ncc(-c3ccc(-n4nccn4)cc3)o2)c1
2. CCOCc1ccc(C)c(Nc2ncc(-c3ccc(-n4nccc4C)cc3)o2)c1
3. CCOCc1ccc(C)c(Nc2nc(-c3ccc(-n4cccn4)cc3)cs2)c1
4. CCOCc1ccc(C)c(Nc2ncc(-c3ccc(-n4c(C)n[nH]c4=O)cc3)o2)c1
5. CCOCc1ccc(C)c(Nc2ncc(-c3ccc(N4CCNC4=O)nc3)o2)c1

1. 0.1 to 0.5 µM
2. > 1 µM
3. ≤ 0.1 µM
4. > 1 µM
5. ≤ 0.1 µM
